test_system: cloned human P2Y1 receptors (Homo sapiens (Human))
Sequence (P47900 whole entry): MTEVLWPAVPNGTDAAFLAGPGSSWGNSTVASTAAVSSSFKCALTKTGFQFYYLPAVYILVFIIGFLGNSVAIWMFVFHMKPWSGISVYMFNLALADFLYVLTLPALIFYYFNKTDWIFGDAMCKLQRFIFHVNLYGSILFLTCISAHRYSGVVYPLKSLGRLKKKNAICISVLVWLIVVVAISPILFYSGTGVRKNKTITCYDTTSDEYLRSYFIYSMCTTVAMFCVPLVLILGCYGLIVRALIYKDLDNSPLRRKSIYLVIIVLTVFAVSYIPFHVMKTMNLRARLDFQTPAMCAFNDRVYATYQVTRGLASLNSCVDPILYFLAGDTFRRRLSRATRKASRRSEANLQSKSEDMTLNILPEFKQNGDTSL
assay_summary: Binding Assay B - Scintillation Proximity Assay (SPA) for P2Y1 binding, [33P] 2MeS-ADP
condition_description: SPA, 0.3 nM [33P] 2MeS-ADP, Cheng-Prusoff; read-out: P2Y1 Ki (nM) using binding assay B
What Ki was measured for each of the following?
A bare number is not enough; add the unit after it.

Please review the following examples before continuing.
# molecule, Ki
rows = [
    ("CC(C)(C)CN1CCCC1c1ccc(NC(=O)Nc2ccccc2N2CC(C)(C)c3c(-c4ccc(F)cc4)ccc(O)c32)cc1 (stereo not shown)", "5.7 nM"),
    ("CC1(C)CN(c2ccccc2NC(=O)Nc2nc3ccc(F)cc3s2)c2c(O)ccc(C(F)(F)F)c21", "12.4 nM"),
    ("CC1(C)CN(c2ccccc2NC(=O)Nc2ccc(OC(F)(F)F)cc2)c2c(O)cc(F)c(-c3ccc(F)c(Cl)c3)c21", "21.5 nM"),
]

Q. Given `CC1(C)CN(c2ccccc2NC(=O)Nc2ccc(OC(F)(F)F)cc2)c2c(O)cc(F)c(-c3ccc(Cl)c(F)c3)c21` , respond with its Ki.
A. 40.8 nM

###

Tested on: human platelet rich plasma (PRP)
assay_summary: ADP induced platelet aggregation assay
condition_description: Homo sapiens, Platelet, 5 min, read-out: PA IC50 (μM) @ 10 μM ADP, human PRP, 10 μM ADP, AUC at 5 minute
// assign class 1 if IC50 falls strictly below 0.4 µM, else class 0 (ties count as class 0)

Worked examples follow.
# mol, assigned_label
records = [
    ("CC1(C)CN(c2ccccc2NC(=O)Nc2csc(Cl)n2)c2c(O)cc(F)c(-c3ccc(Cl)cc3)c21", "class 1"),
    ("CCC1(CC)CN(c2ccccc2NC(=O)Nc2ccc(OC(F)(F)F)cc2)c2c(O)ccc(C(F)(F)F)c21", "class 1"),
    ("CC(C)c1noc(-c2c(F)cc(O)c3c2C(C)(C)CN3c2ccccc2NC(=O)Nc2ccc(OC(F)(F)F)cc2)n1", "class 0"),
    ("CC1(C)CN(c2ccccc2NC(=O)Nc2ccc(OC(F)(F)F)cc2)c2c(O)c(F)cc(Br)c21", "class 0"),
    ("CC1(C)CN(c2ccccc2NC(=O)Nc2ccc(OC(F)(F)F)cc2)c2c(O)ccc(C(F)(F)F)c21", "class 1"),
]

Q. Lab log: compare recorded IC50 with 0.4 µM; is it strictly lower for `CC1(C)CN(c2ccccc2NC(=O)Nc2ccc(OC(F)(F)F)cc2)c2c(O)cc(F)c(-c3ccc(Cl)cn3)c21` ?
A. class 1

Q. Lab log: compare recorded IC50 with 0.4 µM; is it strictly lower for `CC1(C)CN(c2ccccc2NC(=O)Nc2nc3ccc(Cl)nc3s2)c2c(O)ccc(-c3ccc(F)cc3)c21` ?
A. class 1

###

System: human platelet rich plasma (PRP)
assay_summary: ADP induced platelet aggregation assay
condition_description: Homo sapiens, Platelet, 5 min, read-out: PA IC50 (μM) @ 10 μM ADP, human PRP, 10 μM ADP, AUC at 5 minute
What IC50 was measured for each of the following?
Answers are plain numbers, in µM.

# mol, experimental_endpoint, readout_units, result
data = [
    ("CC1(C)CN(c2ccccc2NC(=O)Nc2ccc(OC(F)(F)F)cc2)c2c(O)cc(F)c(-c3nc4ccc(F)cc4s3)c21", "IC50", "µM", 0.5),
    ("CC1(C)CN(c2ccccc2NC(=O)Nc2nc3ccc(F)cc3s2)c2c(O)ccc(Br)c21", "IC50", "µM", 0.47),
    ("CC1(C)CN(c2ccccc2NC(=O)Nc2csc(C(F)(F)F)n2)c2c(O)cc(F)c(-c3nc4cc(Cl)ccc4s3)c21", "IC50", "µM", 0.56),
    ("CC1(C)CN(c2ccccc2NC(=O)Nc2csc(C(F)(F)F)n2)c2c(O)cc(F)c(-c3ccc(Cl)cc3)c21", "IC50", "µM", 0.37),
    ("CC1(C)CN(c2ccccc2NC(=O)Nc2ccc(OC(F)(F)F)cc2)c2c(O)cc(F)c(-c3ccc(F)cc3)c21", "IC50", "µM", 0.26),
    ("CC1(C)CN(c2ccccc2NC(=O)Nc2nc3ccc(F)cc3s2)c2c(O)ccc(-c3nc4cc(Cl)ccc4s3)c21", "IC50", "µM", 0.27),
]

In the following, a different molecule is considered.
Q. Given `CC1(C)CN(c2ccccc2NC(=O)Nc2ccc(OC(F)(F)F)cc2)c2c(O)ccc(Br)c21` , respond with its IC50.
A. 0.53
